// values below are reported Relative % to non-lipidated peptide
- SUBJECT OF TEST: human glucagon receptor (GCGR), expressed on CHO-K1 cells (human, UniProt P47871 26-477)
- Sequence (P47871 26-477): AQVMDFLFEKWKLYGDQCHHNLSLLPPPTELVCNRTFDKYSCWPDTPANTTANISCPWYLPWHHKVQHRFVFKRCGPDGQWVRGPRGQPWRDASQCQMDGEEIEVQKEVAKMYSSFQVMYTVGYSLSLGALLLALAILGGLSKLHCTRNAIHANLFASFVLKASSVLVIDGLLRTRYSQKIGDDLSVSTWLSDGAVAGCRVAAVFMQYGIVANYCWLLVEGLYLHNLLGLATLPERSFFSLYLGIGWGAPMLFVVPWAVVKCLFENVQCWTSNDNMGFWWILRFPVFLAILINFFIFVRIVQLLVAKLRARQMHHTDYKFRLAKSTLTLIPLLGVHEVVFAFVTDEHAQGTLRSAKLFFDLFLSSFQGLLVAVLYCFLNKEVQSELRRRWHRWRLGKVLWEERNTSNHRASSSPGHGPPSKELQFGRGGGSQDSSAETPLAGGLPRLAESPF
- ASSAY NAME: cell-based or functional assay
Numbered stars: 1 amine (or outer) side, 2 acyl side, 3 side chain; on linkers, the order of the positions; unused ones are H or OH. Square brackets hold non-standard residues; d marks the D form. Primed or numbered codes have the meaning given here. Side chains are listed from the residue outwards. Ends that are not written are not given here. * marks the point of attachment. C18″ = C18 fatty acid moiety (of 2OEG-γGlu-C18, K*); γGlu = O=C(O)[C@H](CCC(=O)[*:2])N[*:1]; AEEA = NCCOCCOCC(=O)O; Aib = CC(C)(N)C(=O)O
MEASUREMENT LABEL: Relative % to non-lipidated peptide

1. Y[Aib]QGTFTSDYSK([AEEA-AEEA-γGlu-C18″])LLDYMMQRDFVQWLLEGGPSSGAPPPS-NH2 [Peptide No. 5-3D] :: 1%
2. Y[Aib]QGTFTSDYSKYLDYMMARDFVQWLIEGGPSSGAPPPSC-NH2 [Peptide No. 5-1] :: 100%
3. Y[Aib]QGTFTSDYSK([AEEA-AEEA-γGlu-C18″])YLDYMMQRDFVQWLIEGGPSSGAPPPS-NH2 [Peptide No. 5-2D] :: 3%
